Every entry's value here was drawn from paper PMC8476055.

attribute_measured: melting point

Any idea what melting point was measured for `CC1(C)CC[C@]2(C(=O)NCCCNC(=O)/C=C/c3ccc(O)cc3)CC[C@]3(C)C(=CC[C@@H]4[C@@]5(C)C[C@@H](O)[C@H](O)C(C)(C)[C@@H]5CC[C@]43C)[C@@H]2C1` ?
123 to 125 °C

Any idea what melting point was measured for `Cc1cc(=O)oc2cc(NC(=O)[C@]34CCC(C)(C)C[C@H]3C3=CC[C@@H]5[C@@]6(C)C[C@@H](OC(=O)c7cc8ccccc8oc7=O)[C@H](OC(=O)c7cc8ccccc8oc7=O)C(C)(C)[C@@H]6CC[C@@]5(C)[C@]3(C)CC4)ccc12` ?
206 to 208 °C

Any idea what melting point was measured for `CC1(C)CC[C@]2(C(=O)NCCCCCCNC(=O)/C=C/c3ccc(O)cc3)CC[C@]3(C)C(=CC[C@@H]4[C@@]5(C)C[C@@H](O)[C@H](O)C(C)(C)[C@@H]5CC[C@]43C)[C@@H]2C1` ?
76 to 78 °C

Any idea what melting point was measured for `CC1(C)CC[C@]2(C(=O)NCCCCCCNC(=O)Cc3cc(=O)oc4cc(O)ccc34)CC[C@]3(C)C(=CC[C@@H]4[C@@]5(C)C[C@@H](O)[C@H](O)C(C)(C)[C@@H]5CC[C@]43C)[C@@H]2C1` ?
139 to 141 °C

Any idea what melting point was measured for `CC1(C)CC[C@]2(C(=O)O)CC[C@]3(C)C(=CC[C@@H]4[C@@]5(C)C[C@@H](OC(=O)c6cc7ccccc7oc6=O)[C@H](OC(=O)c6cc7ccccc7oc6=O)C(C)(C)[C@@H]5CC[C@]43C)[C@@H]2C1` ?
200 to 202 °C

Any idea what melting point was measured for `CC1(C)CC[C@]2(C(=O)NCCCCCCCCCCNC(=O)c3cc4ccccc4oc3=O)CC[C@]3(C)C(=CC[C@@H]4[C@@]5(C)C[C@@H](O)[C@H](O)C(C)(C)[C@@H]5CC[C@]43C)[C@@H]2C1` ?
86 to 88 °C

Any idea what melting point was measured for `CC1(C)CC[C@]2(C(=O)NCCCCCCNC(=O)c3cc4ccccc4oc3=O)CC[C@]3(C)C(=CC[C@@H]4[C@@]5(C)C[C@@H](O)[C@H](O)C(C)(C)[C@@H]5CC[C@]43C)[C@@H]2C1` ?
73 to 75 °C

---

I'd appreciate it if you could supply viability at 72 h values for the items below.
# experiment_description: MTT assay, nontumor HPF cells
# Type: cell-based, human
# condition_summary: human, HPF normal lung fibroblast cells; at the compound's IC50 concentration for B16–F10 cancer cells; read-out: percent viability (% viability) of HPF cells
Answer format: numeric, % implied, no suffix.

Any idea what viability at 72 h was measured for `CC1(C)CC[C@]2(C(=O)NCCCNC(=O)/C=C/c3ccc(O)cc3)CC[C@]3(C)C(=CC[C@@H]4[C@@]5(C)C[C@@H](O)[C@H](O)C(C)(C)[C@@H]5CC[C@]43C)[C@@H]2C1` ?
76.9

Any idea what viability at 72 h was measured for `CC1(C)CC[C@]2(C(=O)O)CC[C@]3(C)C(=CC[C@@H]4[C@@]5(C)C[C@@H](OC(=O)c6cc7ccccc7oc6=O)[C@H](OC(=O)c6cc7ccccc7oc6=O)C(C)(C)[C@@H]5CC[C@]43C)[C@@H]2C1` ?
92.9
